Overview of recorded z-score for various compounds
Assay: compound effects on lung adenocarcinoma cell viability – A549, calcein-AM fluorescence, 48 h, basal, profiling panel (AID 1162); note: test concentration not given here
Settings: higher = more signal
In your answer, state the number alone without any accompanying words.

Please review the entries below; each comes with its answer.
Structure	z-score
[N-]=[N+]=NCc1ccccc1C[C@@]1(C(N)=O)N=C(c2ccc(OCCCO)cc2)O[C@@H]1c1ccccc1	-0.914
CCOC(=O)C[C@H]1[C@H](OC(=O)Cc2ccc3c(c2)OCO3)[C@@H](NC(=O)c2ccc3ccccc3n2)c2cc(OCCCO)ccc2N1C(=O)c1ccccc1	0.776
CC(C)(C)OC(=O)COc1cccc(C(=O)CCN2CCOCC2)c1	1.06
COc1ccc([Si](C)(C)[C@@H]2[C@@H](CC(=O)N3Cc4ccccc4C[C@H]3CO)O[C@]3(C(=O)N(Cc4ccc(N5C(=O)c6cccc7cccc5c67)cc4)c4ccccc43)[C@H]2C)cc1	0.396
COc1ccc(CCNC(=O)[C@@]2(c3ccc([N+](=O)[O-])cc3)CC(=O)N(C3CCCCC3)[C@@H]2c2ccc(CO)cc2)cc1	2.41

# return recorded z-score for entry CCOC(=O)C[C@H]1[C@H](OC(=O)Cc2ccc3c(c2)OCO3)[C@@H](NC(=O)c2ccc3ccccc3n2)c2cc(OCCCO)ccc2N1C(=O)c1ccc2ccccc2n1 5.35

State its z-score for this compound: [N-]=[N+]=Nc1ccccc1C[C@]1(C(=O)O)COC(c2ccc(OCCCO)cc2)=N1 -0.118

----------
Assay: blood-stage malaria parasite viability loss – strain 3D7, DAPI fluorescence, 100 nL, primary screen (AID 1184);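 note: parasites grown inside human red blood cells in medium with human serum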
Conditions: P. falciparum 3D7 growth, 3 d, higher = more signal
Please enter TRUE where z-score is greater than or equal to -0.6, and FALSE where it is lower.

Would you please look over these solved cases?
Compound	Classification
CCCCC(O)C1C=CC2C(=O)N(C)C(=O)C2N1N(c1ccccc1)c1ccccc1 (stereo unspecified)	TRUE
NC(=O)[C@@]1(Cc2ccccc2)COC(c2ccc(OCCCO)cc2)=N1	TRUE
CC(C)C[C@@H]1NC(=O)[C@@H]2C[C@H](C(=O)NCCCCCCN)[C@H](c3cccc(OCCO)c3)N2C1=O	FALSE
CCCNC(=O)[C@@H]1c2ccccc2C(=O)N(Cc2ccc(OC(F)(F)F)cc2)[C@H]1c1ccc(CO)cc1	FALSE
CCOC(=O)C1=C[C@@H](C(C)C)N(S(=O)(=O)c2ccc(C)cc2)[C@H]1c1ccc(C(F)(F)F)cc1	FALSE
COC(=O)[C@@]1(Cc2ccc(F)cc2)[C@H]2c3cc(C(=O)N(C)C)n(Cc4ccc(OC(F)(F)F)cc4)c3C[C@H]2CN1C(=O)c1ccccc1	TRUE
CCCCCN1CC=CC23O[C@@H]4/C=C\CCC(C)OC(=O)C4[C@H]2C(=O)N(C(CO)C(C)C)[C@@H]3C1=O (stereo partly specified)	FALSE
C=CCC(OC(C)=O)[C@@H]1[C@@H](N(Cc2cc3ccccc3o2)C(=O)Cc2ccc(F)cc2)c2cc(OCCCO)ccc2N1C(=O)Cc1ccc2ccccc2c1 (stereo partly specified)	TRUE
CCOC(=O)C[C@H]1[C@H](OC(=O)c2ccccc2-c2ccccc2)[C@@H](NC(=O)c2ccc3ccccc3n2)c2cc(OCCCO)ccc2N1C(=O)Cc1ccc(OC)cc1	FALSE
C=CCOC(=O)[C@@]1(Cc2ccccc2)C[C@H]2CO[C@H](c3ccc(OC)cc3)N2C1=O	FALSE

Would you say CCCC=C(CCC)[C@@H](NC(=O)c1cccs1)c1ccc(C(=O)OC)cc1 shows z-score at minimum -0.6? TRUE

Is z-score for COc1cc(OC)c(C(O)C2C=CC3C(=O)N(Cc4ccccc4)C(=O)C3N2n2cnnc2)cc1Br (stereo unspecified) at or above -0.6? FALSE

Decide: is the reported value of z-score for C=C[C@H]1C(C(=O)OCC)=CC[C@@H](c2ccccc2)N1S(=O)(=O)c1ccc(C)cc1 equal to or greater than -0.6? FALSE

State whether the measured z-score reaches -0.6, counting equality as reaching it, for COC(=O)[C@@]1(Cc2ccc(OC)cc2)[C@H]2c3cc(C(=O)N(C)C)n(Cc4ccc(OC(F)(F)F)cc4)c3C[C@H]2CN1C(=O)c1ccccc1 FALSE

Please check the record COC(=O)[C@@H]1N=C(c2ccc(OCCCO)cc2)O[C@@H]1C and state if its z-score is at or above -0.6. TRUE

# check: z-score of CCOC(=O)C[C@H]1[C@H](OC(=O)c2ccc(C(=O)c3ccccc3)cc2)[C@@H](NC(=O)C2CCCCC2)c2cc(OCCCO)ccc2N1C(=O)c1ccc2ccccc2n1 is greater than or equal to -0.6 FALSE

Please indicate if the recorded z-score for C=CCNC(=O)[C@@H]1[C@H]2C(=O)O[C@H](c3ccccc3)[C@H](c3ccccc3)N2[C@H](c2ccccc2OCCO)[C@@]12C(=O)N(C(=O)OCCOC)c1ccc(C#CC3(O)CCCCCC3)cc12 meets or exceeds -0.6. FALSE

----------
Experiment: binders of probe aHhip on microarray, primary screen, stem cell growth factor project, biochemical, small-molecule microarray, fluorescence 635/667 (AID 1087);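 note: score merges spot fluorescence at 667nm with spot signal to noise ratio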
Conditions: higher = more signal
Label Condition not met if composite z-score falls below -0.1; label Condition met in every other case.

Recorded results for 5 compounds are shown here.
> print(dat)
                                   compound     classification
1  CN(C)C(=O)[C@]1(Cc2ccccc2CN=[N+]=[N-])N=C(c2ccc(OCCCO)cc2)O[C@@H]1c1ccccc1      Condition met
2  CC(C)[Si](C#C[Si](C(C)C)(C(C)C)C(C)C)(O[C@H](c1ccccc1)c1cn(Cc2ccccc2)nn1)C(C)C      Condition met
3  CCCCCC1=C2CNC(C)(C(=O)OC)C=C2C(C)C1=O (stereo not drawn)      Condition met
4  CCOC(=O)C1=C[C@@H](C(C)C)N(S(=O)(=O)c2ccc(C)cc2)[C@H]1c1ccc(C(F)(F)F)cc1      Condition met
5  O=C1C2C=CC(C(O)c3cccc(O)c3)N(Nc3ccc([N+](=O)[O-])cc3)C2C(=O)N1c1ccccc1 (stereo not drawn)  Condition not met

Does the compound COc1cc(OC)c(C(O)C2C=CC3C(=O)N(Cc4ccccc4)C(=O)C3N2n2cnnc2)cc1Br (stereo not drawn) have recorded composite z-score that is -0.1 or more? Condition met

Say whether CCCC[C@@H]1C[C@H]1[C@@H](NC(=O)c1cccs1)c1ccccc1C(F)(F)F shows composite z-score of -0.1 or more. Condition not met

Can O=C1OCCC=C[C@H]2OC34C=CCN(c5ccc6ccccc6c5)C(=O)[C@H]3N(CCCO)C(=O)[C@@H]4C12 (stereo partly drawn) be said to have composite z-score at or above -0.1? Condition not met

----------
Experiment: S6 kinase pathway phospho-S6 level changes – cell-based, A549, cytoblot, luminescence, serum-stimulated, primary screen (AID 1158);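 note: serum-stimulated A549 lung adenocarcinoma cells; signal is phosphorylated S6 detected by cytoblot immunostaining with HRP secondary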
Settings: 5 h, higher = more signal
Grouping key: z-score. Bins: low (below -0.07), mid (-0.07 to below 0.5), high (0.5 or more)

Compound	Classification
CCOC(=O)C[C@H]1[C@H](OC(=O)c2ccc(C(=O)c3ccccc3)cc2)[C@@H](NC(=O)c2ccc3ccccc3n2)c2cc(OCCCO)ccc2N1C(=O)Cc1ccc(OC)cc1	high

Lab note: sort CC1CC/C=C\[C@H]2OC34C=CCN(C(C)C)C(=O)[C@H]3N(CCO)C(=O)[C@@H]4C2C(=O)O1 (stereo not given in full) into the matching z-score band. high

Which band does COC(=O)[C@@]1(Cc2ccc(F)cc2)[C@H]2c3cc(C(=O)N4CCCC4)n(CCc4c[nH]c5ccccc45)c3C[C@H]2CN1C(=O)c1ccccc1 fall in? low

Assign a category based on measured z-score for COCCOC(=O)N1C(=O)[C@@]2(c3cc(C#CC4=CCCCC4)ccc31)[C@H](c1ccccc1OCCO)N1[C@H](c3ccccc3)[C@H](c3ccccc3)OC(=O)[C@H]1[C@@H]2C(=O)NC[C@H](O)c1ccccc1 and give only the class name. mid

----------
Assay: JC-1 mitochondrial signal, unstimulated myeloma cells – cell-based, JC-1 fluorescence, RPMI8226, 24 h, 100 nL compound, profiling panel (AID 1169); note: test concentration not given here
Settings: JC-1 mitochondrial potential fluorescence, higher = more signal
Mark No for z-score values under 0.3, and Yes for everything at or above.

> print(dat)
                                   molecule  classification
1  CCCCC(CC)C(O)C1C=CC2C(=O)N(c3ccccc3)C(=O)C2N1Nc1ccccc1F (stereo not drawn)             Yes
2  COc1cc2c(cc1O)C(C1CC1)N(C)CC2 (stereo not drawn)              No
3  C=CC[C@@]1(C(=O)NCCCOC)N=C(c2ccc(OCCCO)cc2)O[C@@H]1c1ccccc1              No
4  COC(=O)[C@@]1(Cc2ccc(F)cc2)[C@H]2c3cc(C(=O)N4CCCC4)n(CCc4c[nH]c5ccccc45)c3C[C@H]2CN1C(=O)c1ccccc1              No
5  CS(=O)(=O)CCOC(=O)C1=CC(c2ccc(CO)cc2)=CC(C2CC2)N(Cc2sc3ccccc3c2Cl)C=C1C(=O)OCCS(C)(=O)=O (stereo not drawn)              No

Decide: is the reported value of z-score for COC(=O)C1=CC(CCCO)=CC(c2ccc(CN3CCCC3)cc2)N(Cc2cccc(OC(F)(F)F)c2)C=C1C(=O)OC (stereo not drawn) equal to or greater than 0.3? No

Test whether the molecule O=C(O)[C@@H]1C[C@@H]2C(=O)N3CCC[C@H]3C(=O)N2[C@@H]1c1ccc(O)cc1 records z-score of 0.3 or higher. No

Answer whether z-score of CCCCC=C[C@@H](NC(=O)OCc1ccccc1Cl)c1ccccc1 is greater than or equal to 0.3. No

Reported z-score reaches at least 0.3 for COc1ccc([Si](C)(C)[C@@H]2[C@@H](CCO)O[C@]3(C(=O)N(Cc4ccccc4)c4ccc(N5C(=O)c6cccc7cccc5c67)cc43)[C@H]2C)cc1 ? No

Say whether CCCNC(=O)[C@@H]1c2ccccc2C(=O)N(Cc2ccc(OC(F)(F)F)cc2)[C@H]1c1ccc(CO)cc1 shows z-score of 0.3 or more. Yes

Determine whether measured z-score meets or exceeds 0.3 for C=C(/C(=C/C[C@H](OC(C)=O)c1ccc(CO)o1)c1cnc2ccccc2c1)C(C)C Yes

Exam item: decide whether the reported z-score for CCOC(=O)C=Cc1cccc(C)c1O is at least 0.3. No

Would you say CC[C@@H]1C=C(C(=O)O)[C@H](c2ccc(C#N)cc2)N1S(=O)(=O)c1ccc(C)cc1 shows z-score at minimum 0.3? Yes

Is the recorded value of z-score equal to or greater than 0.3 for this molecule? COC(=O)[C@@H]1N=C(c2ccc(OCCCO)cc2)O[C@@H]1c1ccccc1 No

Tell me whether z-score is at least 0.3 here: CCOC(=O)C[C@H]1[C@H](OC(=O)c2ccc(-c3ccccc3)cc2)[C@@H](NC(=O)CC(C)C)c2cc(OCCCO)ccc2N1C(=O)c1ccc2ccccc2n1 No

Is z-score at least 0.3? Consider COc1cc2c(cc1O)C(c1ccc(CN3CCCC3)cc1)N(Cc1cc3c(cc1Br)OCO3)CC2 (stereo not drawn) No

Could you please find out whether C=C[C@H]1C(C(=O)OCC)=CC[C@@H](c2ccccc2)N1S(=O)(=O)c1ccc(C)cc1 has z-score that meets 0.3 or exceeds it? No

# check: z-score of OCCCC1=CC(c2ccc(CN3CCCC3)cc2)N(Cc2cc3c(cc2Br)OCO3)CC1 (stereo not drawn) is greater than or equal to 0.3 Yes
